- System Tested: T1, human IL-8 (human, UniProt P10145 28-99, limits assumed)
- T1 sequence (looked up): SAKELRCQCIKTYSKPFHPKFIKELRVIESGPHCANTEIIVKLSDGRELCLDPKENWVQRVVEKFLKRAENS
- Procedure Summary: cell-based or functional assay

{"Binder": "2B12.1E1 (antibody, IgG2c, V domains shown) VH: EVQLQQSGPELVKPGASVKISCKASGYTFTDYYMNWVKQSHGKSLEWIGDINPNNGNTNYNQKFKGKATLTVDKSSSTAYMEFRSLTSEDSAVYYCAGLGRIFDYWGQGTTLTVSS VL: ENVLTQSPAIMSASPGEKVTMTCRASSSVSSTFLHWYQQKSGASPKLWIYSTSDLASGVPARFSGSGSGTSYSLTISSVEAEDAATYYCQQYSGYPWTFGGGTKLEIK", "FLIPR IC50": "1.6 µg/mL"}
{"Binder": "5D2.2D10 (antibody, V domains shown) VH: QIQLVQSGPELKKPGETVKISCKASGYIFTAYGMSWVKQAPGKGLKWMGWINTYSGVPTYADHFKGRFDFSLETSASTAYLQINNLKNEDTATYFCARPTVVDPWYFDVWGTGTTVTVSS VL: DIQMTQSPASLSVSVGETVTITCRASENIYSNLAWYQQKQGKSPQLLVYAATNLGDGVPSRFSGSGSGTQYSLKINSLQSEDFGSYYCQHFWTTPWTFGGGTKLEIK", "FLIPR IC50": "> 200 µg/mL"}
{"Binder": "1L351.17 (antibody, IgG2b, V domains shown) VH: QAYLQQSGAELVRPGASVKMSCKASGYTFTSYNMHWVKQTPRQGLEWIGAIYPGNGDTSYNQKFKGKATLTVDKSSSTAYMQLSSLTSEDSAVYFCARDLYYFDYWGQGTTLTVSS VL: ENVLTQSPAIMSAFPGEKVTMTCRASSSVSSTYLHWYQQKSGASPKLWIYSTSDLASGVPARFSGSGSGTSYSLTISSVEAEDAATYYCQQFSGYPWTFGGGTKLEIK", "FLIPR IC50": "> 67 µg/mL"}
